These entries and their values trace back to ChEMBL document CHEMBL1201862.

test system: M14; assay: NCI tumour cell line growth inhibition, 48 h
Active and inactive are the calls of the source. Cut-off read from the data, not from the text of the source: active = GI50 up to about 1.1 µM and inactive = higher.
Your response should consist of one outcome taken from active, inactive

# example entries with known answers
> print(dat)
                                   compound  qualitative.label
1  c1ccc2c(c1)[nH]c1nc3cc(-c4ccc5nc6c(nc5c4)[nH]c4ccccc46)ccc3nc12           inactive
2  [O-][Cl+3]([O-])([O-])[O-].c1ccc(-c2[o+]c(-c3ccccc3)c(-c3ccccc3)c(-c3ccccc3)c2-c2ccccc2)cc1           inactive

--- query ---
Called result for "Cc1cccc(Br)[n+]1[O-]"
inactive

====

tested on: SF-295; assay: NCI tumour cell line growth inhibition, 48 h
The source made the active and inactive calls. Cut-off read from the data, not from the text of the source: active = GI50 up to about 1.1 µM and inactive = higher.
Measured GI50 accompanies every entry in the list below.

Here are 5 compounds together with their reported answers.
> print(dat)
                                   compound  reported.property             reported
1  CC(C)(C)c1cc(C(=O)/C=C/c2ccc(O)c(O)c2O)cc(C(C)(C)C)c1O               GI50   5.41 µM (inactive)
2  CCOC(=O)O/N=C1/C(=C2/C(=O)Nc3ccccc32)Nc2ccccc21               GI50   8.73 µM (inactive)
3         O=C(CN1CCCC1=O)CS(=O)(=O)c1ccccc1               GI50  > 100 µM (inactive)
4  O=C1C2=C(c3ccccc31)C(c1ccccc1)NC(S)=N2 (stereo unspecified)               GI50   31.9 µM (inactive)
5  CCOC(=O)C(Cc1ccc(O)cc1)Nc1nc(=O)c2c(=O)oc(Cl)cc2o1 (stereo unspecified)               GI50     16 µM (inactive)

Which measured GI50 value corresponds to "Oc1nc2cc3nc(O)c(O)nc3cc2nc1O" ?
> 100 µM (inactive)

====

Measured GI50 accompanies every entry in the list below.
system: HCT-15

Here are 4 compounds together with their reported answers.
> print(dat)
                                   compound  subject.of.test  reported
1  CC1(C)OC1COc1c2occc2cc2ccc(=O)oc12 (stereo unspecified)           HCT-15  > 100 µM
2  [N-]=[N+]=C(C(=O)C(=[N+]=[N-])C(=O)c1ccccc1)C(=O)c1ccccc1           HCT-15  > 100 µM
3                       O=c1ccc2ccc(S)cc2o1           HCT-15  > 100 µM
4  CCC1=C(C)C(=O)N/C1=C\c1[nH]c(C)c([C@H](C)CCN)c1C           HCT-15   14.8 µM

Enter reported GI50 observed with HCT-15 for CCOC1CCC2C(CCC(/C=C/c3ccc(O)c4ncccc34)N2C)C1 (stereo unspecified)
40.8 µM

Enter reported GI50 observed with HCT-15 for "O=C(/C=C/c1ccc2c(c1)OCO2)NCc1ccco1"
> 100 µM

====

system: SF-539; assay: NCI tumour cell line growth inhibition, 48 h
The source made the active and inactive calls. Cut-off read from the data, not from the text of the source: active = GI50 up to about 1.1 µM and inactive = higher.
Your response should consist of one outcome taken from active, inactive

> print(dat)
                                   compound  qualitative.label
1  CC(C)(C)c1cc(C(=O)/C=C/c2ccc(O)c(O)c2O)cc(C(C)(C)C)c1O           inactive
2  Brc1ccc(C[P+]2(c3ccccc3)CCCCC2)cc1.[O-][Cl+3]([O-])([O-])[O-]           inactive

Called result for "O=C1CC2(CCNCC2)C(=O)N1N1CCCC1"
inactive

Called result for FC1(F)ON2CCc3ccccc3C2[C@H]1c1ccccc1 (stereo partly specified)
inactive

Called result for "O=C1c2ccccc2C(=O)N1[C@@H](Cc1ccccc1)C(=O)n1cccc1CO"
inactive

Called result for "CC(=O)NNc1nc(C)c(C(=O)/C=C/c2ccc(/C=C/C(=O)c3sc(NNC(C)=O)nc3C)cc2)s1"
inactive

Called result for "CCC1=C(C)C(=O)N/C1=C\c1[nH]c(C)c([C@H](C)CCN)c1C"
active

Called result for "O=C(O)CCCc1cc2c(s1)-c1cccc3cccc-2c13"
inactive

Called result for Cc1cccc2c1CC(C1OC(=O)c3ccccc31)C2=O (stereo unspecified)
inactive

Called result for COC(=O)C1CCc2nnc(-c3cccnc3)n21 (stereo unspecified)
inactive

Called result for CC(O)C(O)C(N)CC=O (stereo unspecified)
inactive
